Item-by-item account of pKi
biological target: Botulinum neurotoxin type A (Clostridium botulinum, UniProt P0DPI0); test: Uncompetitive inhibition of recombinant Clostridium botulinum BoNT/A light chain (425 amino acids) using SNAP-25 as substrate preincubated for 20 followed by substrate addition measured for 25 mins by Lineweaver-Burk plot analysis
Sequence (P0DPI0 2-448 limits assumed): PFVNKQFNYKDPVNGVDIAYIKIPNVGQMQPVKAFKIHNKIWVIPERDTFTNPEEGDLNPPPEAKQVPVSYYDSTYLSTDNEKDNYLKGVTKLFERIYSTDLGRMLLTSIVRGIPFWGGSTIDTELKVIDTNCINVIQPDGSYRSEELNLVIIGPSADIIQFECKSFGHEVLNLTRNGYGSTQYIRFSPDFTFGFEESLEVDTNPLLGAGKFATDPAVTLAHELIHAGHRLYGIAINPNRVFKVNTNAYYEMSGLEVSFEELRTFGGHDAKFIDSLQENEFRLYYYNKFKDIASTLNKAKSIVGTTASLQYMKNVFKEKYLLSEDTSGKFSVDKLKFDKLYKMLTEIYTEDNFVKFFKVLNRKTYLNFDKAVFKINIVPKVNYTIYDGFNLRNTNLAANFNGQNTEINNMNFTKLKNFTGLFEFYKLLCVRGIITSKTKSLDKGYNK
Quick note: pKi values are minus log10 of concentrations in mol/L.

O=S(=O)(c1ccc(O)c2ncccc12)N1CCc2c(Cl)cccc21
5.69

Now look at this one.
pKi of `NNc1ccc2c(S(=O)(=O)N3CCc4c(Cl)cccc43)ccc(O)c2n1` on Botulinum neurotoxin type A (Clostridium botulinum, UniProt P0DPI0)?
6.05

---

target: Botulinum neurotoxin type A (Clostridium botulinum) (UniProt P0DPI0); assay: Inhibition of BoNT/A light chain mediated proteolysis of CFP and YFP tagged full-length SNAP-25 expressed in BoCells at 25 uM after 20 hrs by fluorescence assay
Sequence (P0DPI0 2-448 limits assumed): as above
Active and inactive are the calls of the source. No cut-off for these calls is given here.
Valid outcomes are listed here; reply with one: active, inactive

CC(=O)NNc1ccc2c(S(=O)(=O)N3CCc4c(Cl)cccc43)ccc(O)c2n1
inactive

Any idea what this test logged for `NNc1ccc2c(S(=O)(=O)N3CCc4c(Cl)cccc43)ccc(O)c2n1` ?
inactive

Any idea what this test logged for `Nc1ccc2c(S(=O)(=O)N3CCc4c(Cl)cccc43)ccc(O)c2n1` ?
active

Any idea what this test logged for Oc1c(C(Nc2ccccn2)c2ccccc2)ccc2cccnc12 (stereo unspecified) ?
inactive

Any idea what this test logged for `CNNc1ccc2c(S(=O)(=O)N3CCc4c(Cl)cccc43)ccc(O)c2n1` ?
active

Any idea what this test logged for `O=S(=O)(c1ccc(O)c2ncccc12)N1CCc2c(Cl)cccc21` ?
active

---

molecular target: Botulinum neurotoxin type A (Clostridium botulinum); test: Inhibition of protease activity of recombinant Clostridium botulinum BoNT/A light chain (425 amino acids) using SNAP-25 as substrate preincubated for 20 followed by substrate addition measured for 25 mins by FRET analysis
Item-by-item account of IC50
Your answer is read as µM, so omit the unit and give the number.

Worked examples follow.
O=S(=O)(c1ccc(O)c2ncccc12)N1CCc2c(Cl)cccc21
3.66
O=S(=O)(c1ccc(O)c2ncccc12)N1CCCCC1
18.3
CC(=O)NNc1ccc2c(S(=O)(=O)N3CCc4c(Cl)cccc43)ccc(O)c2n1
5.39
CN(c1cccc(Cl)c1)S(=O)(=O)c1ccc(O)c2ncccc12
4.28
O=S(=O)(Nc1ccccc1)c1ccc(O)c2ncccc12
12.7
Nc1ccc2c(S(=O)(=O)N3CCc4c(Cl)cccc43)ccc(O)c2n1
3.36
CN(c1ccccc1)S(=O)(=O)c1ccc(O)c2ncccc12
7.19
CCNc1ccc2c(S(=O)(=O)N3CCc4c(Cl)cccc43)ccc(O)c2n1
28.6
O=S(=O)(c1ccc(O)c2ncccc12)N1CCc2ccc(Cl)cc21
12.8
CNNc1ccc2c(S(=O)(=O)N3CCc4c(Cl)cccc43)ccc(O)c2n1
3.26

Which IC50 is reported for this compound? `O=S(=O)(Nc1cccc(Cl)c1)c1ccc(O)c2ncccc12`
7.32

Which IC50 is reported for this compound? `NNc1ccc2c(S(=O)(=O)N3CCc4c(Cl)cccc43)ccc(O)c2n1`
1.55

Which IC50 is reported for this compound? `CNc1ccc2c(S(=O)(=O)N3CCc4c(Cl)cccc43)ccc(O)c2n1`
37.6
